Test: pKa, log P and log D of the compound of formula (II)
Assay type: physicochemical
reported property: LogP

## Input Given CNc1cc2[nH]c(=O)n(-c3ccc(NC(=O)NS(=O)(=O)c4ccc(Cl)s4)cc3)c(=O)c2cc1F [compound of formula (II), elinogrel] , state its recorded LogP.
## Output ~2.5

---

Test: pKa, log P and log D of the compound of formula (II)
Assay type: physicochemical
Conditions: read-out: second pKa
reported property: pKa
Lab note: jot the number down without any unit.

## Input Given CNc1cc2[nH]c(=O)n(-c3ccc(NC(=O)NS(=O)(=O)c4ccc(Cl)s4)cc3)c(=O)c2cc1F , state its recorded pKa.
## Output 10.3

---

Test: Super-saturation measurement (CheqSol): intrinsic and kinetic solubility
Type: physicochemical
Conditions: thermodynamic from solid; CheqSol
reported property: solubility

>  <compound>
CNc1cc2[nH]c(=O)n(-c3ccc(NC(=O)NS(=O)(=O)c4ccc(Cl)s4)cc3)c(=O)c2cc1F

>  <solubility>
0.0234 µg/mL

$$$$

Next compound, solubility to be filled in.
## Input Given CNc1cc2[nH]c(=O)n(-c3ccc(NC(=O)[N-]S(=O)(=O)c4ccc(Cl)s4)cc3)c(=O)c2cc1F.[K+] [Form A] , state its recorded solubility.
## Output 0.0159 µg/mL

---

Assay: Comparison of pharmacokinetic effects (AUC, bioavailability) in human studies for polymorphic form B, A and D
Type: in vivo
Details: human, plasma, oral, 150 mg, polymorphs of the potassium salt
reported property: AUC (ng·h/mL)
Number only, in ng·h/mL; omit the unit.

## Input Given CNc1cc2[nH]c(=O)n(-c3ccc(NC(=O)[N-]S(=O)(=O)c4ccc(Cl)s4)cc3)c(=O)c2cc1F.[K+] [Form B] , state its recorded AUC.
## Output 27600

---

Assay: Saturation solubility, shake-flask with UV quantification
Format: physicochemical
Details: aqueous buffer, thermodynamic from solid; Na-Acetate pH 4.5, mean N = 2
reported property: solubility at 72 h (µg/mL)
Number only, in µg/mL; omit the unit.

## Input Given CNc1cc2[nH]c(=O)n(-c3ccc(NC(=O)NS(=O)(=O)c4ccc(Cl)s4)cc3)c(=O)c2cc1F , state its recorded solubility at 72 h.
## Output 0.89

---

Measured solubility kinetic, listed per entry for reference.
Assay: Super-saturation measurement (CheqSol): intrinsic and kinetic solubility
Assay type: physicochemical
Conditions: kinetic from dmso stock; CheqSol
Form field: result (number plus unit)

>  <compound>
CNc1cc2[nH]c(=O)n(-c3ccc(NC(=O)NS(=O)(=O)c4ccc(Cl)s4)cc3)c(=O)c2cc1F

>  <obs value>
4.17 µg/mL

$$$$

Next compound, solubility kinetic to be filled in.
## Input Given CNc1cc2[nH]c(=O)n(-c3ccc(NC(=O)[N-]S(=O)(=O)c4ccc(Cl)s4)cc3)c(=O)c2cc1F.[K+] [Form A] , state its recorded solubility kinetic.
## Output 6.57 µg/mL

---

Assay: Saturation solubility, shake-flask with UV quantification
Format: physicochemical
Settings: thermodynamic from solid; FaSSIF pH 6.5-1w, mean N = 2
reported property: solubility at 72 h
Form field: result (number plus unit)

## Input Given CNc1cc2[nH]c(=O)n(-c3ccc(NC(=O)NS(=O)(=O)c4ccc(Cl)s4)cc3)c(=O)c2cc1F [compound of formula (II), elinogrel] , state its recorded solubility at 72 h.
## Output 25.2 µg/mL

---

Test: Supersaturation stabilization experiment with PVP K90 (CheqSol)
Format: physicochemical
Details: aqueous buffer; pH 6.0; read-out: solubility measured by Sirius CheqSol
reported property: solubility (µg/mL)
Number only, in µg/mL; omit the unit.

## Input Given CNc1cc2[nH]c(=O)n(-c3ccc(NC(=O)NS(=O)(=O)c4ccc(Cl)s4)cc3)c(=O)c2cc1F [compound of formula (II), elinogrel] , state its recorded solubility.
## Output 9.9

---

Test: Aqueous solubility of the free acid versus pH
Assay type: physicochemical
Settings: aqueous buffer; pH 1.0-7.4; read-out: aqueous solubility of the free acid form
reported property: solubility

## Input Given CNc1cc2[nH]c(=O)n(-c3ccc(NC(=O)NS(=O)(=O)c4ccc(Cl)s4)cc3)c(=O)c2cc1F , state its recorded solubility.
## Output < 100 µg/mL

---

Assay: Aqueous solubility of the free acid versus pH
Type: physicochemical
Conditions: aqueous buffer; pH 8 or above; read-out: aqueous solubility
reported property: solubility

## Input Given CNc1cc2[nH]c(=O)n(-c3ccc(NC(=O)NS(=O)(=O)c4ccc(Cl)s4)cc3)c(=O)c2cc1F , state its recorded solubility.
## Output ≥ 1000 µg/mL

---

Assay: Supersaturation stabilization experiment with PVP K90 (CheqSol)
Format: physicochemical
Conditions: pH 7.2, aqueous buffer
reported property: solubility at 66 h

## Input Given CNc1cc2[nH]c(=O)n(-c3ccc(NC(=O)NS(=O)(=O)c4ccc(Cl)s4)cc3)c(=O)c2cc1F , state its recorded solubility at 66 h.
## Output ~170 µg/mL

---

Assay: Saturation solubility, shake-flask with UV quantification
Type: physicochemical
Settings: simulated gastric fluid, thermodynamic from solid; SGF pH 2.1, mean N = 2
reported property: solubility at 72 h
Form field: result (number plus unit)

## Input Given CNc1cc2[nH]c(=O)n(-c3ccc(NC(=O)NS(=O)(=O)c4ccc(Cl)s4)cc3)c(=O)c2cc1F , state its recorded solubility at 72 h.
## Output 0.48 µg/mL

---

Experiment: pKa, log P and log D of the compound of formula (II)
Type: physicochemical
Details: pH 7.4; pH7.4
reported property: logD

## Input Given CNc1cc2[nH]c(=O)n(-c3ccc(NC(=O)NS(=O)(=O)c4ccc(Cl)s4)cc3)c(=O)c2cc1F , state its recorded logD.
## Output ~-1.6

The reported numbers originate from patent US8987285B2.
